Reported growth values for a set of compounds
test system: UACC-62 melanoma; test: NCI-60 one-dose screen, 48 h (100 = growth as untreated, 0 = no growth, -100 = all killed); settings: 10 µM unless noted
The panel holds about 83,000 compounds, 20% with a hit somewhere; the sample as a whole holds those more often.

| compound | growth [%] |
| --- | --- |
| CCCCC1Nc2nc(SC)n(C)c(=O)c2CN(Cc2ccccc2)C1=O (stereo unspecified) | 85.9 |
| CCSc1nnc2n(Cc3ccccc3)c(=O)c3c(C)c(C(N)=O)sc3n12 | 97.7 |
| Oc1ccccc1C=Nc1ccccc1N=Cc1ccccc1O.[Cu+2] | 43.9 |
| COc1ccc2[nH]c(-c3ccccc3)cc2c1 | 84.7 |
| CC[N+](C)(CC)CCCC(C)Nc1ccnc2cc(Cl)ccc12 (stereo unspecified) | 105 |
| O=C1CC(=O)N(c2ccccc2)O1 | 93.9 |
| COc1ccc(/C=C2\NC(=S)NC2=O)cc1 | 95.3 |
| O=C1Nc2ccccc2C12Nc1cc(Cl)ccc1S2 (stereo unspecified) | 80.9 |
| COc1ccc(-c2noc(N)c2-c2cc(OC)c3c(c2)OCO3)cc1 | 44.1 |
| COc1ccc(-c2nn(-c3ccccc3)cc2/C=C2\SC(=S)N(CCc3ccc(O)cc3)C2=O)cc1 | 60.3 |
| CCCc1cccc(CCC)c1O | 107 |
| COc1ccc2[nH]cc(/C=C3/C(=O)Nc4ccc(F)cc43)c2c1 | 73.5 |
| COc1cc(Oc2cc(-c3cccnc3)ccc2NC(=O)Nc2ccc(F)cc2F)cc(OC)c1OC | 88.9 |
| Clc1cccc(Cc2cn3cc(-c4ccccc4)nc3s2)c1 | 23.3 |
| CCC(CCC(C)C1CCC2C3CC=C4CC(O)CCC4(C)C3CCC12C)C(C)C (stereo unspecified) (tested in a mixture with another compound) | 95 |
| COc1ccc(/C=C/C(=O)Nc2cccnc2Nc2ccc(F)cc2)cc1 | 86.6 |
| O=C(Nc1ccc(Cl)cc1)Nc1ccc(Nc2nncc3ccccc23)cc1 | 13.4 |
| CCOC(=O)c1cc(-c2cccnc2)nc2c(Cl)cc(Cl)cc12 | 95.6 |
| Cc1cc(O)c2c(c1)C[C@H]1[C@@H]3CC[C@H]4CC(=O)CC[C@]4(C)[C@H]3CC(=O)[C@]21C | 57.4 |
| O=C(CCc1nnc(Cn2cncn2)o1)c1nc2ccccc2[nH]1 | 97.9 |
| O=c1ccn(C2CCCO2)c(=O)[nH]1 (stereo unspecified) | 109 |
| CCOC(=O)C1=C(C)N2C(=NC3=C(CCC/C3=C\c3ccc(Cl)cc3)C2c2ccc(Cl)cc2)S1 (stereo unspecified) | 54.7 |
| COC(=O)CC1=C(C)/C(=C/c2[nH]c(-c3ccc[nH]3)cc2OC)N=C1C | -46.5 |
| COc1ccc2c(c1)C(=O)/C(=C/c1ccc([N+](=O)[O-])s1)O2 | -48 |
| CN(C)c1cccc2c(S(=O)(=O)N[C@H]3CC[C@H]4[C@@H]5CCc6cc(O)ccc6[C@H]5CC[C@]34C)cccc12 | 49.9 |
| Clc1ccc2nc(Cl)c3ccccc3c2c1 | 96.2 |
| Clc1ccc(-n2cnc3c(Cl)ncnc32)cc1Cl | 85.4 |
| CCOc1cccc(C2CC(=O)Nc3cc4c(cc32)OCO4)c1 (stereo unspecified) | 90.9 |
| COC(=O)[C@]1(CCSC)N[C@H](c2cn(-c3ccccc3)nc2C)[C@@H]2C(=O)N(c3ccccc3)C(=O)[C@@H]21 | 102 |
| Cc1cccc(Cl)c1NC(=O)c1ccc2nc(NC(=O)NC3CC(C)(C)NC(C)(C)C3)sc2c1 | 107 |
| COc1ccc(/C=N/NC(=O)c2ccc(S(C)(=O)=O)cc2)cc1OC | 92.7 |
| COc1ccc(-c2cncn2-c2ccc(-c3nc4cc(OC)c(OC)c(OC)c4s3)cc2)cc1N | 53.7 |
| COc1ccc(-c2cc(C(=O)Nc3nc4cc(C)c(C)cc4s3)nc3cc(-c4ccccc4)nn23)cc1OC | 107 |
| Clc1ccc([C@@H]2C[C@@H]3Cc4cc(Br)c5ccccc5c4N2O3)c(Cl)c1 | 62.8 |
| CCCCSc1cc(C)nc(N)n1 | 93.9 |
| C[C@]12CC[C@@H]3c4ccc(O)cc4CC[C@H]3[C@@H]1CC[C@@H]2NS(=O)(=O)c1cccc(Br)c1 | 70 |
| O=C(C(=O)N1CCCCC1)c1ccc(OC2OC(CO)C(O)C(O)C2O)cc1 (stereo unspecified) | 97.9 |
| CCCCN(CCCC)CCCOC(=O)c1ccc(N)cc1 | 92.3 |
| Nc1nc(SCc2ccccc2Cl)c(-c2ccccc2)c(SCc2ccccc2Cl)n1 | 99.6 |
| COc1cc([C@@H]2c3cc4c(cc3C(O[C@@H]3O[C@@H]5CO[C@@H](c6cccs6)OC5[C@H](O)[C@H]3O)C3COC(=O)[C@@H]32)OCO4)cc(OC)c1O (stereo partly specified) | -54.3 |
| COc1ccc(Nc2ccnc(NCCCNc3ccnc4cc(Cl)ccc34)n2)cc1 | -91.2 |
